Reference source: the supplement of paper PMC6470124

Form field: absolute recovery (one value per entry).
experiment: absolute recovery over mixed-bed multilayer solid-phase extraction; higher = better recovery; details: nanopure water; enrichment method: SPE
readout_type: absolute recovery (%)

>>> recorded_measurement("C[NH+]=CNc1ccc(C)cc1C")
35.1
>>> recorded_measurement("COc1nc(C)nc(NC(=O)[N-]S(=O)(=O)c2ccccc2CCC(F)(F)F)n1")
106
>>> recorded_measurement("O=P1(N(CCCl)CCCl)NCCCO1 (stereo not given)")
98.1
>>> recorded_measurement("CCC1(c2cccc(O)c2)CCCC[NH+](C)C1 (stereo not given)")
90.6
>>> recorded_measurement("CC(C)N(C(=O)COc1nnc(C(F)(F)F)s1)c1ccc(F)cc1")
100
>>> recorded_measurement("CS(=O)(=O)c1ccc(C(=O)[O-])c([N+](=O)[O-])c1")
98
>>> recorded_measurement("Cc1cc(C(C)(C)C)cc(C)c1CC1=[NH+]CCN1")
87.3
>>> recorded_measurement("[O-]n1nnc2ccccc21 [1-Hydroxybenzotriazole H]")
99.2
>>> recorded_measurement("CSc1nnc(C(C)(C)C)c(=O)n1N")
91.1
>>> recorded_measurement("Cc1cccc(C)c1N(Cn1cccn1)C(=O)C(=O)[O-]")
95.6
>>> recorded_measurement("Cc1cccc(Nc2ccccc2C(=O)[O-])c1C")
101
>>> recorded_measurement("CCCC(Cn1cncn1)c1ccc(Cl)cc1Cl (stereo not given)")
98.5
>>> recorded_measurement("N#Cc1nn(-c2c(Cl)cc(C(F)(F)F)cc2Cl)c(N)c1C(F)(F)F")
139
>>> recorded_measurement("CC([NH3+])Cc1ccccc1 (stereo not given)")
97.7
>>> recorded_measurement("CC([NH3+])C12CC3CC(CC(C3)C1)C2 (stereo not given)")
71.9
>>> recorded_measurement("CC(C)N1C(=O)N(c2ccccc2)CSC1=NC(C)(C)C")
67.9
>>> recorded_measurement("CC1(C)CC1C(=O)NC(=CCCCCSCC([NH3+])C(=O)[O-])C(=O)[O-] (stereo not given)")
47.7
>>> recorded_measurement("O=C1CCC2(O)C3Cc4ccc(O)c5c4C2(CC[NH+]3CC2CC2)C1O5 (stereo not given) [Naltrexon]")
87.8
>>> recorded_measurement("COC(=O)c1ccc(CNS(C)(=O)=O)cc1S(=O)(=O)[N-]C(=O)Nc1nc(OC)cc(OC)n1")
101
>>> recorded_measurement("O=S(=O)([O-])NC1CCCCC1")
95.8

---

As shown below, each of these compounds has a reported absolute recovery value.
assay: absolute recovery over mixed-bed multilayer solid-phase extraction; higher = better recovery; conditions: wastewater effluent; enrichment method: SPE
readout_type: absolute recovery (%)

>>> recorded_measurement("CC(C)N(C(=O)CS(=O)(=O)[O-])c1ccc(F)cc1")
96.3
>>> recorded_measurement("CS(=O)(=O)c1cc(C(F)(F)F)ccc1C(=O)c1cnoc1C1CC1")
22.8
>>> recorded_measurement("CCc1ccc(CCOc2ccc(CC3SC(=O)[N-]C3=O)cc2)nc1 (stereo not given)")
104
>>> recorded_measurement("CC[NH+](CC)CC(=O)Nc1c(C)cccc1C")
93.5
>>> recorded_measurement("C[NH2+]C(C)C(=O)c1ccc(C)cc1 (stereo not given)")
62.8
>>> recorded_measurement("NC(=O)N1c2ccccc2C2OC2c2ccccc21 (stereo not given) [Carbamazepin-10-11-epoxid]")
94.8
>>> recorded_measurement("C[NH+](C)C(C)(C)CO")
10.1
>>> recorded_measurement("Cc1ncc2n1-c1ccc(Cl)cc1C(c1ccccc1F)=NC2")
89.6
>>> recorded_measurement("COc1cc([N-]S(=O)(=O)c2ccc(N)cc2)nc(OC)n1")
90.3
>>> recorded_measurement("CC(Oc1ccc(Oc2ccc(C(F)(F)F)cn2)cc1)C(=O)[O-] (stereo not given)")
96.6
>>> recorded_measurement("Cc1cc(O)nc(C(C)C)n1")
85.3
>>> recorded_measurement("CCNc1nc(Cl)nc(NCC)n1")
88.3
>>> recorded_measurement("CCCC(CCC)(C(=O)[O-])C(=O)O")
94.7
>>> recorded_measurement("COc1c(C)c2c(c(O)c1CC=C(C)CCC(=O)[O-])C(=O)OC2")
100
>>> recorded_measurement("CC([NH3+])C(O)c1ccccc1 (stereo not given)")
68.1
>>> recorded_measurement("COC(=O)c1ccccc1S(=O)(=O)[N-]C(=O)Nc1nc(C)nc(OC)n1")
95.9
>>> recorded_measurement("CC(C)N(Cc1ccccc1)C(=O)C(C)(C)C")
81.3
>>> recorded_measurement("Nc1ccn(C2OC(CO)C(O)C2(F)F)c(=O)n1 (stereo not given)")
94.3
>>> recorded_measurement("COc1nc(NC(=O)[N-]S(=O)(=O)c2ccccc2C(F)(F)F)nc(C(F)(F)F)n1")
90.7
>>> recorded_measurement("O=C(Cc1ccccc1)NC(=NOCC1CC1)c1c(C(F)(F)F)ccc(F)c1F")
106

---

assay: LC retention time (Atlantis T3, 5-95% MeOH gradient, 0.1% formic acid); higher = more retained / less polar
So basically: LC retention time at 10 min or higher? That is met. Lower than 10 min? That is not met.

>>> answer_label("CCc1cc(C)cc(CC)c1-c1c(OC(=O)C(C)(C)C)n2n(c1=O)CCOCC2 [Pinoxaden]")
"met"
>>> answer_label("Nc1nc(N)[nH+]c(NC2CC2)n1 [Cyromazin]")
"not met"
>>> answer_label("O=C([O-])C(c1ccccc1Cl)[NH+]1CCc2sccc2C1 (stereo not given) [Clopidogrel-Carboxylic-Acid]")
"met"
>>> answer_label("O=C(C1CCCCC1)N1CC(=O)N2CCc3ccccc3C2C1 (stereo not given) [Praziquantel]")
"met"
>>> answer_label("CC(C)N(C(=O)C(=O)[O-])c1ccc(F)cc1 [Flufenacet-OXA]")
"met"
>>> answer_label("CCC(=[NH+]OCC=CCl)C1=C([O-])CC(C2CCOCC2)CC1=O (stereo not given) [Tepraloxydim]")
"met"
>>> answer_label("CC(C)[NH2+]CC(O)COc1ccc(CC(N)=O)cc1 (stereo not given) [Atenolol]")
"not met"
>>> answer_label("CSc1nnc(C(C)(C)C)c(=O)n1N [Metribuzin]")
"met"
>>> answer_label("Cc1cc(C)cc(OCC2CNC(=O)O2)c1 (stereo not given) [Metaxalone]")
"met"

---

assay: LC retention time (Atlantis T3, 5-95% MeOH gradient, 0.1% formic acid); higher = more retained / less polar
readout_type: LC retention time (min)

>>> recorded_measurement("CC1COc2c(N3CCN(C)CC3)c(F)cc3c(=O)c(C(=O)[O-])cn1c23 (configuration not stated) [Levofloxacin]")
11.2
>>> recorded_measurement("CCN(CC)C(=O)C(C)Oc1cccc2ccccc12 (configuration not stated) [Napropamid]")
20.3
>>> recorded_measurement("O=C1CCC2(O)C3Cc4ccc(O)c5c4C2(CC[NH+]3CC2CC2)C1O5 (configuration not stated) [Naltrexon]")
9.63
>>> recorded_measurement("O=C(NC(=O)c1c(F)cccc1F)Nc1ccc(Cl)cc1 [Diflubenzuron]")
20.5
>>> recorded_measurement("COc1cc(C)c(C(=O)c2c(OC)ccc(Br)c2C)c(OC)c1OC [Metrafenone]")
21.4
>>> recorded_measurement("CCOC(=O)OC1=C(c2cc(C)ccc2C)C(=O)NC12CCC(OC)CC2 (configuration not stated) [Spirotetramat]")
20
>>> recorded_measurement("NC(=O)N1c2ccccc2CC(=O)c2ccccc21 [Oxcarbazepin]")
16.4
>>> recorded_measurement("OCC(O)C(O)C(OC1OC(CO)C(O)C(O)C1O)C(O)CO [D-Lactitol]")
2.76
>>> recorded_measurement("CC(=O)Nc1ccc(S(=O)(=O)[N-]c2ncccn2)cc1 [N4-Acetyl-Sulfadiazin]")
12
>>> recorded_measurement("C=CCC1C=C(C)CC(C)CC(OC)C2OC(O)(C(=O)C(=O)N3CCCCC3C(=O)OC(C(C)=CC3CCC(O)C(OC)C3)C(C)C(O)CC1=O)C(C)CC2OC (configuration not stated) [FK-506 (=Tacrolimus)]")
22.2
>>> recorded_measurement("CCC1(c2cccc(O)c2)CCCC[NH+](C)C1 (configuration not stated) [Meptazinol]")
12.1
>>> recorded_measurement("CC1COC(=O)c2cc3c(cc21)C(C)(C)C(C)C3(C)C (configuration not stated) [Galaxolidon]")
22.2
>>> recorded_measurement("COc1ccc2c(c1)c(CC(=O)[O-])c(C)n2C(=O)c1ccc(Cl)cc1 [Indomethacin]")
20.8
>>> recorded_measurement("CCCN(CCC)c1c([N+](=O)[O-])cc(S(N)(=O)=O)cc1[N+](=O)[O-] [Oryzalin]")
20.2
>>> recorded_measurement("CNC(=O)Oc1cccc2c1OC(C)(C)C2 [Carbofuran]")
17
>>> recorded_measurement("CC(Oc1ccc(Oc2ccc(C(F)(F)F)cn2)cc1)C(=O)[O-] (configuration not stated) [Fluazifop]")
19.7
>>> recorded_measurement("COc1ccc(C2Sc3ccccc3N(CC[NH+](C)C)C(=O)C2OC(C)=O)cc1 (configuration not stated) [Diltiazem]")
15.1
>>> recorded_measurement("CC(=O)N(CC(O)CO)c1c(I)c(C(=O)NCC(O)CO)c(I)c(C(=O)NCC(O)CO)c1I (configuration not stated) [Iohexol]")
8.81
>>> recorded_measurement("COc1cccc(C2(O)CCCCC2C[NH+](C)C)c1 (configuration not stated) [Tramadol]")
12.2
>>> recorded_measurement("Cc1ncc([N+](=O)[O-])n1CCO [Metronidazol]")
10
>>> recorded_measurement("CC(C)[NH+](CCC(C(N)=O)(c1ccccc1)c1ccccn1)C(C)C (configuration not stated) [Disopyramide]")
12.2
>>> recorded_measurement("CNC(=C[N+](=O)[O-])NCCS(=O)Cc1ccc(C[NH+](C)C)o1 (configuration not stated) [Ranitidin-S-oxid]")
6.08
>>> recorded_measurement("O=C1NC(=O)C(c2ccccc2)(c2ccccc2)N1 [Phenytoin]")
17
>>> recorded_measurement("COC(=O)c1ccccc1S(=O)(=O)[N-]C(=O)Nc1nc(C)nc(OC)n1 [Metsulfuron-methyl]")
17
>>> recorded_measurement("Cc1cc(Cl)ccc1OCC(=O)[O-] [MCPA]")
19.3
>>> recorded_measurement("C[NH2+]CC(O)c1cccc(O)c1 (configuration not stated) [Phenylephrine]")
5.47
>>> recorded_measurement("CCC1OC(=O)C(C)C(OC2CC(C)(OC)C(O)C(C)O2)C(C)C(OC2OC(C)CC([NH+](C)C)C2O)C(C)(O)CC(C)C[NH+](C)C(C)C(O)C1(C)O (configuration not stated) [Azithromycin]")
13
>>> recorded_measurement("CCS(=O)(=O)c1cccnc1S(=O)(=O)[N-]C(=O)Nc1nc(OC)cc(OC)n1 [Rimsulfuron]")
17.6
>>> recorded_measurement("CC[NH+](CC)CCNC(=O)c1cc(S(C)(=O)=O)ccc1OC [Tiaprid]")
9.13
>>> recorded_measurement("CCc1cccc(CC)c1N(COC)C(=O)CS(=O)(=O)[O-] [Alachlor-ESA]")
17.2
>>> recorded_measurement("CCC(=O)C(CC(C)[NH+](C)C)(c1ccccc1)c1ccccc1 (configuration not stated) [Methadon]")
15.9
>>> recorded_measurement("C[NH+]1CCCC1c1cccnc1 (configuration not stated) [Nicotine]")
11.1
>>> recorded_measurement("CC(O)C(=O)Nc1c(I)c(C(=O)NC(CO)CO)c(I)c(C(=O)NC(CO)CO)c1I (configuration not stated) [Iopamidol]")
7.78
>>> recorded_measurement("CC1=C(C(=O)[O-])N2C(=O)C(NC(=O)C([NH3+])c3ccccc3)C2SC1 (configuration not stated) [Cefalexin]")
20.2
>>> recorded_measurement("Clc1cccc(N2CC[NH2+]CC2)c1 [1-(3-Chlorophenyl)-piperazine]")
12.6
>>> recorded_measurement("Cc1[nH]c(=O)n(C(C)(C)C)c(=O)c1Cl [Terbacil]")
17.6
>>> recorded_measurement("c1ccc2[nH]c(-c3cscn3)nc2c1 [Thiabendazol]")
11.7
